target-under-test: RAF kinases (Homo sapiens, UniProt P15056, V600E)
Sequence (P15056 whole entry V600E): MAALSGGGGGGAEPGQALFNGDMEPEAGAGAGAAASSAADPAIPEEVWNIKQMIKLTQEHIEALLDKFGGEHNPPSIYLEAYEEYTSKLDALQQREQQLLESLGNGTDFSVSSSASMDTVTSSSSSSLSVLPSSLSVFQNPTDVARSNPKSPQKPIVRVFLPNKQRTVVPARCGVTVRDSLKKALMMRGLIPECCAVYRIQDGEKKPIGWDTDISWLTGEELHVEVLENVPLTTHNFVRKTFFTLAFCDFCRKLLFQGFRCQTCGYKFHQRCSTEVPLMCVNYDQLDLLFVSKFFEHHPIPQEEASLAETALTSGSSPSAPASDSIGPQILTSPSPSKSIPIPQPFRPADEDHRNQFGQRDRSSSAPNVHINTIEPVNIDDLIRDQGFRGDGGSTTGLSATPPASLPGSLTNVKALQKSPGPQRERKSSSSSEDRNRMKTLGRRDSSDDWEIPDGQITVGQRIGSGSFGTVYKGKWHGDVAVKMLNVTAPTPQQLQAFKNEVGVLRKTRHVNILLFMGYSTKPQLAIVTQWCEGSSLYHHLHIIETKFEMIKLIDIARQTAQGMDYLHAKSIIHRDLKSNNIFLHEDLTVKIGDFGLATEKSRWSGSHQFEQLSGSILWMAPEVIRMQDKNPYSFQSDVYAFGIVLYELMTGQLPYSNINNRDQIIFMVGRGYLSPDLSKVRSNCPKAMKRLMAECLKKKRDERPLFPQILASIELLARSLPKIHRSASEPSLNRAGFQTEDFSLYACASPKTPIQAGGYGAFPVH
settings: read-out: BRAF V600E Kd; BRAF V600E
pKd: −log10 of the molar value. Counter-ions that a name gives are not always drawn.
quantity-measured: pKd

COc1ccc(-n2nc(C(C)(C)C)cc2NC(=O)Nc2cccc(Oc3ncnc4cc(OC)c(OC)cc34)c2)cc1 :: > 6.60
COCCOc1cc2ncnc(Oc3cccc(NC(=O)Nc4cc(C5CCCC5)on4)c3)c2cc1OC :: > 6.60
COCCOc1cc2ncnc(Oc3cccc(NC(=O)Nc4cc(C(C)(C)F)no4)c3)c2cc1OC :: > 6.60
CCc1cc(NC(=O)Nc2cccc(Sc3ncnc4cc(OC)c(OC)cc34)c2)n(-c2ccccc2)n1 :: > 6.60
COCCOc1cc2ncnc(Sc3cccc(NC(=O)Nc4cc(C(C)(C)C)nn4-c4ccccc4)c3)c2cc1OC :: < 6.00
COc1cc2ncnc(Sc3cccc(NC(=O)Nc4cc(C(C)(C)C)nn4-c4cncc(F)c4)c3)c2cc1OC :: > 6.60

Next item in the queue.
Incoming: Which pKd reading was recorded for the compound CCOC(=O)Cn1nc(C(C)(C)C)cc1NC(=O)Nc1cccc(Oc2ncnc3cc(OCCOC)c(OC)cc23)c1 [Ex 224, hydrochloride] ?
Outgoing: < 6.00

---

Kindly supply the reported pKd values for the records listed here.
target-under-test: RAF kinases (Homo sapiens)
settings: read-out: RAF1 Kd; RAF1
pKd: −log10 of the molar value.

Would you please look over these solved cases?
COc1cc2ncnc(Oc3cccc(NC(=O)Nc4cc(C(C)(C)C)nn4-c4cccc(C(F)(F)F)c4)c3)c2cc1OC :: < 6.00
COc1cc2ncnc(Oc3ccc(Cl)c(NC(=O)Nc4cc(C(C)(C)C)on4)c3)c2cc1OC :: > 6.60
COCCOc1cc2ncnc(Oc3cccc(NC(=O)Nc4cc(C(C)C)on4)c3)c2cc1OC :: > 6.60
COCCOc1cc2ncnc(Oc3cccc(NC(=O)Nc4cc(C5CCOCC5)no4)c3)c2cc1OC :: < 6.00

For every item in the list below, what is its measured pKd?
1. COc1cc2ncnc(Oc3cccc(NC(=O)Nc4cc(C(C)(C)C(F)(F)F)no4)c3)c2cc1OC
2. COc1cc2ncnc(Oc3cccc(NC(=O)Nc4cc(C(C)(C)C)nn4-c4ccc(C)cc4)c3)c2cc1OC
3. COCCOc1cc2ncnc(Sc3cccc(NC(=O)Nc4cc(C(F)(F)F)nn4C)c3)c2cc1OC
4. COc1cc2ncnc(Oc3cccc(NC(=O)Nc4cc(C(C)(C)C)nn4-c4ccccc4Cl)c3)c2cc1OC
5. COc1cc2c(Oc3cccc(NC(=O)Nc4ccc(OC)c(C(F)(F)F)c4)c3)ncnc2cc1OCCN1CCOCC1
6. CCOc1cc2c(Oc3cccc(NC(=O)Nc4cc(C(C)(C)C(F)(F)F)on4)c3)ncnc2cc1OC
7. COc1cc2ncnc(Oc3cccc(NC(=O)Nc4cc(C(C)(C)C)nn4-c4ccc(C(F)(F)F)cc4)c3)c2cc1OC

Outgoing:
> 6.60
< 6.00
> 6.60
< 6.00
> 6.60
> 6.60
< 6.00

For every item in the list below, what is its measured pKd?
1. COCCOc1cc2ncnc(Sc3cccc(NC(=O)Nc4cc(C(C)(CF)CF)nn4-c4ccccc4)c3)c2cc1OC
2. COc1cc2ncnc(Oc3cccc(NC(=O)Nc4cc(C(C)(C)C(F)(F)F)on4)c3F)c2cc1OC

Outgoing:
< 6.00
> 6.60

---

target-under-test: RAF kinases (Homo sapiens)
assay: biochemical
quantity-measured: Kd

Would you please look over these solved cases?
CCOC(C)(C)c1cc(NC(=O)Nc2cccc(Sc3ncnc4cc(OC)c(OC)cc34)c2)n(-c2ccccc2)n1 [Ex 197] :: > 1000 nM
COc1cc2ncnc(Oc3cccc(NC(=O)Nc4cc(C(C)(C)C)nn4-c4cnccc4C)c3)c2cc1OC [Ex 303] :: 500 to 1000 nM
COc1cc2ncnc(Oc3cccc(NC(=O)Nc4cc(C5(C(F)(F)F)CC5)nn4-c4ccc(C)cc4)c3)c2cc1OC [Ex 346] :: > 1000 nM
COc1cc2ncnc(Sc3cccc(NC(=O)Nc4cc(C5CCCC5)on4)c3)c2cc1OC [Ex 201] :: 250 to 500 nM
COc1cc2ncnc(Oc3cccc(NC(=O)Nc4ccc(OC(F)(F)F)cc4)c3)c2cc1OC [Ex 177] :: 250 to 500 nM

For every item in the list below, what is its measured Kd?
1. COc1cc2ncnc(Oc3cccc(NC(=O)Nc4cc(C(C)(C)C)nn4-c4cccnc4)c3)c2cc1OC [Ex 322]
2. COc1cc2ncnc(Sc3cccc(NC(=O)Nc4cc(C(C)(C)C)on4)c3)c2cc1OC [Ex 46]
3. COc1cc2ncnc(Oc3cccc(NC(=O)Nc4cc(C(C)(C)C)on4)c3)c2cc1OCCCN1CCCCC1 [Ex 23]

Outgoing:
1: 250 to 500 nM; 2: 500 to 1000 nM; 3: 500 to 1000 nM

---

target-under-test: UniProtKB P04049
Sequence (P04049 whole entry): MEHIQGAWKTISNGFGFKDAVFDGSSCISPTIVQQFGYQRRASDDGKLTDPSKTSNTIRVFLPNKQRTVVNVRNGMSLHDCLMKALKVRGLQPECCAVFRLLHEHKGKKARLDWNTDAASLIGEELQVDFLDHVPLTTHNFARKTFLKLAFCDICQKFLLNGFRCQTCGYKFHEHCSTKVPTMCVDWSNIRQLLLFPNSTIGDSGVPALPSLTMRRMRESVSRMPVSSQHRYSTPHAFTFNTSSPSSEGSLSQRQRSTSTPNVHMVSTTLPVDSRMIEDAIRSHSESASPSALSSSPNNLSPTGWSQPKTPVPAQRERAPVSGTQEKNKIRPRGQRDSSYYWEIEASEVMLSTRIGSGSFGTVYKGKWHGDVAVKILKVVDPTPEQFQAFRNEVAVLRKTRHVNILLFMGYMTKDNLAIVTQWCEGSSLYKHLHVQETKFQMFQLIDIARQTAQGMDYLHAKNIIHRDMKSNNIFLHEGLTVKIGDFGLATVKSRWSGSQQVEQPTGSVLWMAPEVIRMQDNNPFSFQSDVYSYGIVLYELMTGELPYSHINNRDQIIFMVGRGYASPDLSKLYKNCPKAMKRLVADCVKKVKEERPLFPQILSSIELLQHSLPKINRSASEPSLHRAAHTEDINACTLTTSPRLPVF
assay: biochemical
pKd: −log10 of the molar value. Where a name gives a salt, the structure may show the parent alone.
Kindly supply the reported pKd values for the records listed here.

Would you please look over these solved cases?
COc1cc2ncnc(Oc3cccc(NC(=O)Nc4cc(C5(C(F)(F)F)CC5)nn4-c4ccc(C)cc4)c3)c2cc1OC :: < 6.00
COCCOc1cc2ncnc(Sc3cccc(NC(=O)Nc4cc(C(C)(CF)CF)on4)c3)c2cc1OC :: 6.30 to 6.60
CC(C)(C)c1cc(NC(=O)Nc2cccc(Oc3ncnc4ccc(-c5ccc(CNCCS(C)(=O)=O)o5)cc34)c2)no1 :: 6.30 to 6.60
CCOc1cc2c(Oc3cccc(NC(=O)Nc4cc(C(C)(C)C)nn4-c4ccccc4)c3)ncnc2cc1OC :: 6.00 to 6.30
COCCOc1cc2ncnc(Oc3cccc(NC(=O)Nc4ccc(C(F)(F)F)c(F)c4)c3)c2cc1OC :: 6.30 to 6.60
COc1cc2ncnc(Sc3cccc(NC(=O)Nc4cc(C(C)(CF)CF)no4)c3)c2cc1OC :: 6.30 to 6.60
COc1cc(NC(=O)Nc2cccc(Sc3ncnc4cc(OC)c(OC)cc34)c2)cc(C(F)(F)F)c1 :: 6.30 to 6.60
COc1cc2ncnc(Oc3cccc(NC(=O)Nc4cc(C(C)(C)C)nn4-c4cccnc4C)c3)c2cc1OC :: 6.30 to 6.60
COc1cc2ncnc(Sc3cccc(NC(=O)Nc4cc(C(C)(C)C)nn4CC(C)C)c3)c2cc1OC :: 6.30 to 6.60
COc1cc2ncnc(Oc3cccc(NC(=O)Nc4cc(C(C)(C)F)no4)c3)c2cc1OCCCS(C)(=O)=O :: > 6.60

For every item in the list below, what is its measured pKd?
1. COc1cc2ncnc(Sc3cccc(NC(=O)Nc4cc(C(C)(C)C)nn4C)c3)c2cc1OC
2. COCCOc1cc2c(Oc3cccc(NC(=O)Nc4cc(C(C)(C)C)on4)c3)ncnc2cc1OC [Ex 15, hydrochloride]
3. COc1cc2ncnc(Sc3cccc(NC(=O)Nc4cc(C5CCC5)nn4-c4ccccc4)c3)c2cc1OC
4. COc1cc2ncnc(Oc3cccc(NC(=O)Nc4ccc(C(F)(F)F)c(F)c4)c3)c2cc1OC
5. COc1cc2ncnc(Oc3cccc(NC(=O)Nc4cc(C(C)(C)C)on4)c3)c2cc1OCCN1CCN(CCO)CC1
6. COCCOc1cc2ncnc(Oc3cccc(NC(=O)Nc4cc(C(C)(C)COC)on4)c3)c2cc1OC
7. COCCOc1ccc2c(Oc3cccc(NC(=O)Nc4cc(C(C)(C)C)on4)c3)ncnc2c1

Outgoing:
6.30 to 6.60
6.30 to 6.60
6.00 to 6.30
6.00 to 6.30
6.30 to 6.60
6.30 to 6.60
6.30 to 6.60

---

target-under-test: RAF kinases (Homo sapiens, UniProt P15056, V600E)
assay: biochemical
pKd: −log10 of the molar value.
quantity-measured: pKd

Would you please look over these solved cases?
COc1cc2ncnc(Oc3cc(NC(=O)Nc4cc(C(F)(F)F)nn4-c4ccccc4)c(F)cc3F)c2cc1OC [Ex 271] :: 6.30 to 6.60
COCCOc1cc2ncnc(Oc3cccc(NC(=O)Nc4cc(C(C)(C)C)nn4C)c3)c2cc1OC [Ex 209] :: 6.30 to 6.60

For every item in the list below, what is its measured pKd?
1. COc1cc2ncnc(Sc3cccc(NC(=O)Nc4cc(C(C)(C)C(F)(F)F)nn4-c4ccccc4)c3)c2cc1OC [Ex 307]
2. CCOC(=O)Cn1nc(C(C)(C)C)cc1NC(=O)Nc1cccc(Sc2ncnc3cc(OCCOC)c(OC)cc23)c1 [Ex 237]
3. COc1cc2ncnc(Oc3cccc(NC(=O)Nc4cc(C(C)(C)C(F)(F)F)nn4-c4ccccc4)c3)c2cc1OC [Ex 306]
4. COCCOc1cc2ncnc(Oc3cccc(NC(=O)Nc4cc(C(C)(F)F)no4)c3)c2cc1OC [Ex 211]
5. COc1cc2ncnc(Oc3cccc(NC(=O)Nc4cc(C(C)(C)C)nn4-c4ccc(C)cc4)c3C)c2cc1OC [Ex 288]
6. COCCOc1cc2ncnc(Sc3cccc(NC(=O)Nc4cc(C(C)(C)C)nn4-c4ccc(C)cc4C)c3)c2cc1OC [Ex 283]

Outgoing:
1: 6.30 to 6.60; 2: 6.00 to 6.30; 3: 6.30 to 6.60; 4: 6.30 to 6.60; 5: 6.30 to 6.60; 6: 6.00 to 6.30

For every item in the list below, what is its measured pKd?
1. CCOC(C)(C)c1cc(NC(=O)Nc2cccc(Sc3ncnc4cc(OCCOC)c(OC)cc34)c2)n(-c2ccccc2)n1 [Ex 241]
2. CCOc1cc2c(Oc3cccc(NC(=O)Nc4cc(C(F)(F)F)nn4-c4ccccc4)c3)ncnc2cc1OC [Ex 391]
3. COCCOc1cc2ncnc(Oc3cccc(NC(=O)Nc4cc(C(F)(F)F)nn4-c4ccc(F)cc4)c3)c2cc1OC [Ex 226]
4. COc1cc2ncnc(Oc3cccc(NC(=O)Nc4cc(C5(C(F)(F)F)CC5)nn4-c4ccccc4)c3)c2cc1OC [Ex 137]
5. COc1ccc2ncnc(Sc3cccc(NC(=O)Nc4cc(C(C)(C)C)on4)c3)c2c1 [Ex 49]

Outgoing:
1: 6.30 to 6.60; 2: > 6.60; 3: 6.00 to 6.30; 4: 6.00 to 6.30; 5: 6.30 to 6.60

For every item in the list below, what is its measured pKd?
1. COc1cc2ncnc(Oc3cccc(NC(=O)Nc4cc(C(C)(C)C)nn4-c4cccc(C)c4)c3)c2cc1OC [Ex 285]
2. COc1cc2ncnc(Sc3cccc(NC(=O)Nc4cc(C(C)(C)C)nn4C4CCCCC4)c3)c2cc1OC [Ex 331]

Outgoing:
1. 6.30 to 6.60
2. 6.30 to 6.60
